B1: glmS ribozyme (parent)
chain: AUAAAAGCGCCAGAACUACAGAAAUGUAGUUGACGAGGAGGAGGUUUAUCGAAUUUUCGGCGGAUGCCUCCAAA

Variants of: B1
Assay: self-cleavage kobs at 160 uM GlcN6P; higher = faster cleavage; RNA array
Details: with glucosamine-6-phosphate
Variants at the floor of the assay were thinned out.
metric: self-cleavage kobs at 160 uM GlcN6P

Below, 6 variants whose answers are already recorded.
residue_sequence="AUAAAAGCGCCAGAACUACAGAAAUGUAGUUGACGAGGAGGAGGAUUAUCGAGUUUUCGGCGGAUGCCUCUAAA [U45A A53G C71U]" endpoint_result="0.00381 s⁻¹"
residue_sequence="AUAAACGCGCCAGAACUACAGAAAUGUAGUUGACGAGGAGGAGGUUUAUCGAAUUUUCGGCGGUUGCCUCCAAA [A6C A64U]" endpoint_result="< 1e-05 s⁻¹"
residue_sequence="AUAAAAGCGCCAGCACUACAGAAAUGUAUUUGACGAGGAGGAGGUUUAUCGAAUUUUCGGCGGAUGCCUCCAAA [A14C G29U]" endpoint_result="5.99e-05 s⁻¹"
residue_sequence="AUAAAAGGGCCAGAACUACAGAAAUGUAGUUGACUAGGAGGAGGUUUAUCGAAUUUUCGGCGGAUACCUCCAAA [C8G G35U G66A]" endpoint_result="< 1e-05 s⁻¹"
residue_sequence="AUAAACGUGCCAGAACUACAGAAAUGUAGUUGAAGAGGAGGAGGUUUAUCGAAUUUUCGGCGGAUGCCUCCAAA [A6C C8U C34A]" endpoint_result="< 1e-05 s⁻¹"
residue_sequence="AUAAAAACGCCAGAACUACAGAAAUGUAGUUGACGAGGAGGAGGUUUAUCGUAUUUUCGGCGGGUGCCUCAAAA [G7A A52U A64G C71A]" endpoint_result="< 1e-05 s⁻¹"

The recorded self-cleavage kobs at 160 uM GlcN6P for entry AUAAAAGCGCCAGAACUACAGAAAUGUAGUUGACGAGGUGGAGGUUUAUCGAAUUUUCGGCGGAUCCCUCCAAA [A39U G66C] equals 0.00046 s⁻¹
